Test summary: AUC in P-gp competent CF-1 mouse plasma at 0.47 mg/kg through systemic exposure
Type: ADME, organism-based
Set-up: dose 0.47 mg/kg
Measure: AUC (ng·h/mL)
A number alone suffices; assume ng·h/mL.

CN(C)C(=O)C(CCN1CCC(O)(c2ccc(Cl)cc2)CC1)(c1ccccc1)c1ccccc1 [LOPERAMIDE] has a reported AUC of 0.517

###

Test summary: AUC (0 to 240 mins) in P-gp deficient CF-1 mouse plasma at 0.47 mg/kg through oral gavage
Type: ADME, organism-based
Parameters: time < 4 hr, dose 0.47 mg/kg, route oral
Measure: AUC(0-t) at 4 h

Reported AUC(0-t) at 4 h of CN(C)C(=O)C(CCN1CCC(O)(c2ccc(Cl)cc2)CC1)(c1ccccc1)c1ccccc1 [LOPERAMIDE] : 7 ng·h/mL

This collection of values is drawn from ChEMBL document CHEMBL3526125.
